Test system: CP194
assayNotes: qHTS profiling for inhibitors of Plasmodium falciparum proliferation (AID 504749); note: nearly all actives have a fitted effect of over 60% in size
condition: P. falciparum in erythrocytes, SYBR Green DNA, 72 h; series mostly up to 28.7 µM
Results filed as inconclusive are left out. Calls of active or inactive are those of the source. Calls come from the whole dose curve; as a rule, active = well fitted inhibition curve with a large enough effect; inconclusive = small, poorly fitted or top-dose-only effect; inactive = flat fitted curve, though single readings scatter.
Classes used: active, inactive

| compound | discreteLabel |
| --- | --- |
| Cc1ccc(S(=O)(=O)NC(=O)NC2CCCC2)cc1 | inactive |
| O=C1C(O)=C(O)C(=O)C(O)=C1O | inactive |
| CCCCc1cc2ccccc2c(OCCN(C)C)n1 | inactive |
| CCCCCCCCCCCCCC[N+](C)(C)Cc1ccccc1 | active |
| O=C(O)CCNC(=O)c1ccccc1 | inactive |
| CC(=O)OC[C@H]1O[C@@H](n2ncc(=O)[nH]c2=O)[C@H](OC(C)=O)[C@@H]1OC(C)=O | inactive |
| NS(=O)(=O)c1cc(C(=O)O)cc(N2CCCC2)c1Oc1ccccc1 | inactive |
| C#C[C@]1(O)CC[C@H]2[C@@H]3CCc4cc(OC)ccc4[C@H]3CC[C@@]21C | inactive |
| Oc1ccc(Cl)cc1Cc1cc(Cl)ccc1O | inactive |
| Cc1cc(NS(=O)(=O)c2ccc(N)cc2)nc(C)n1 | inactive |
| COc1cc(C)nc(-n2nc(C)cc2OC)n1 | inactive |
| CN(C)CCC[C@@]1(c2ccc(F)cc2)OCc2cc(C#N)ccc21 | inactive |
| CC(C)Cc1ccc(CC(=O)O)cc1 | inactive |
| CC(=O)Nc1ncc([N+](=O)[O-])s1 | inactive |
| COc1cc(C(=S)N2CCOCC2)ccc1O | inactive |
| C#C[C@]1(OC(C)=O)CC[C@H]2[C@@H]3CCC4=C/C(=N/O)CC[C@@H]4[C@H]3CC[C@@]21CC | inactive |
| CN1CCN(c2c(F)cc3c(=O)c(C(=O)O)cn4c3c2SCC4)CC1 | inactive |
| O=C(c1ccc(F)cc1)C1CCN(CCn2c(=S)[nH]c3ccccc3c2=O)CC1 | active |
| O[C@@H](c1cc(C(F)(F)F)nc2c(C(F)(F)F)cccc12)[C@H]1CCCCN1 | active |
| Oc1ccccc1C=NCc1ccccc1 | inactive |
| CC1CCc2c(N3CCC(O)CC3)c(F)cc3c(=O)c(C(=O)O)cn1c23 (centres undefined) | inactive |
| Cc1c[nH]c2ccccc12 | inactive |
| COc1ccc(C(=O)c2ccccc2)c(O)c1 | inactive |
| Cc1c(-c2ccccc2)oc2c(C(=O)OCCN3CCCCC3)cccc2c1=O | inactive |
